Target: T1, human C5a receptor (human, UniProt P21730 1-350)
T1 sequence (looked up): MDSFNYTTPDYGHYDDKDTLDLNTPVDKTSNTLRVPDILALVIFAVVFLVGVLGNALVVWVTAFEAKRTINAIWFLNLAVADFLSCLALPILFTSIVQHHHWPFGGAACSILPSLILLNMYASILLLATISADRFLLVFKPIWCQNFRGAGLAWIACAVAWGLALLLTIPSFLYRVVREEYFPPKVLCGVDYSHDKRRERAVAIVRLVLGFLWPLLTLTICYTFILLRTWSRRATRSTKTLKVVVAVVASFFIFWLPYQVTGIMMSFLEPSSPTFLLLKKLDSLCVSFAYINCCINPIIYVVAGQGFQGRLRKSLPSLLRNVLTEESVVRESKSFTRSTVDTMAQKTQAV
Test: cell-based or functional assay
reported.property: ID50 [nM] (inhibition of N-acetyl-beta-D-glucosaminidase release from C5aR-RBL cells) (nM)

(I) C5a-(1-66,Cys27Ala)-A8B-Cys73 (ligand, also called Ab8-Cys73; 67-FKRSLLC-73) TLQKKIEEIAAKYKHSVVKKCCYDGAAVNNDETCEQRAARISLGPRCIKAFTECCVVASQLRANISFKRSLLC
(II) C5a-(1-66,Cys27Ala)-A8B-Leu70 (ligand, also called 67-FKRLLLR-73) TLQKKIEEIAAKYKHSVVKKCCYDGAAVNNDETCEQRAARISLGPRCIKAFTECCVVASQLRANISFKRLLLR
(III) C5a-(1-66,Cys27Ala)-A8B-Lys69-Ala70 (ligand) TLQKKIEEIAAKYKHSVVKKCCYDGAAVNNDETCEQRAARISLGPRCIKAFTECCVVASQLRANISFKKALLR
Ask: Take the binders listed above and rank them by ID50 [nM] (inhibition of N-acetyl-beta-D-glucosaminidase release from C5aR-RBL cells); the top slot goes to the highest value. Returns: the labels arranged in the requested order.
Result: III, I, II
